From: PubChem BioAssay AID2060620

Test system: 328373-195-R-J1-PDC complex spheroids, viability % test/control
Test: Anticancer human tumor 328373-195-R-J1-PDC patient-derived head and neck squamous carcinoma cell line growth inhibition [CLK]
Settings: second compound 1 µM; first compound 0.316 µM; stronger effect = lower value
From the text: A high-throughput screen of multi-cell type tumor spheroids was designed to identify active combinations of […] and targeted small molecules. Complex spheroids include a stromal component modeled by human endothelial cells (HUVEC) and fibroblasts modeled by human mesenchymal stem cells (MSCs). […] Compounds. […] If the clinical Cmax for an agent had not been determined, the highest concentration tested was 10 microM. […]
reportedProperty: viability, T/C

// worked examples, viability, T/C included
[
  {
    "compound": "CCCS(=O)(=O)Nc1ccc(F)c(C(=O)c2c[nH]c3ncc(-c4ccc(Cl)cc4)cc23)c1F + CN1CCN(c2cc(C(=O)Nc3cc4cc(-c5cnn(C)c5)ccc4cn3)ccn2)CC1",
    "result": "2.63%"
  },
  {
    "compound": "COc1ccc([C@@H](O)c2cc(-c3ncnc4cc(N5CCOCC5)ccc34)c(F)cc2Cl)nn1 + CN1CCN(c2cc(C(=O)Nc3cc4cc(-c5cnn(C)c5)ccc4cn3)ccn2)CC1",
    "result": "2.16%"
  }
]

Now turn to the next compound.
Indicate its recorded viability, T/C; the compound in question is Nc1ccccc1NC(=O)c1ccc(CNC(=O)OCc2cccnc2)cc1 + CNC(=O)c1ccc(Nc2nc(OC3CCCC3)c3c(-c4ccc5nc(C)oc5c4)c[nH]c3n2)c(OC)c1 9.56%

* * *

test system: 328373-195-R-J1-PDC complex spheroids, viability % test/control; assay: Anticancer human tumor 328373-195-R-J1-PDC cell line growth inhibition [CLK]; conditions: second compound 3.16 µM; first compound 0.316 µM; stronger effect = lower value;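 further: spheroids exposed to the agents for 7 days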
For each of the compounds below, state its viability, T/C.
One number for each entry, in %.

[
  {
    "compound": "CC1(C)CCC(CN2CCN(c3ccc(C(=O)NS(=O)(=O)c4ccc(NCC5CCOCC5)c([N+](=O)[O-])c4)c(Oc4cnc5[nH]ccc5c4)c3)CC2)=C(c2ccc(Cl)cc2)C1 + CN1CCN(c2cc(C(=O)Nc3cc4cc(-c5cnn(C)c5)ccc4cn3)ccn2)CC1",
    "readoutNumber": 1.25
  },
  {
    "compound": "Nc1ccccc1NC(=O)c1ccc(CNC(=O)OCc2cccnc2)cc1 + CNC(=O)c1ccc(Nc2nc(OC3CCCC3)c3c(-c4ccc5nc(C)oc5c4)c[nH]c3n2)c(OC)c1",
    "readoutNumber": 10.8
  },
  {
    "compound": "Nc1ccn(C2OC(CO)C(O)C2(F)F)c(=O)n1 (stereo not given) + CN1CCN(c2cc(C(=O)Nc3cc4cc(-c5cnn(C)c5)ccc4cn3)ccn2)CC1",
    "readoutNumber": 0.12
  }
]

Would you mind listing viability, T/C for each of the following compounds?
1. CCCS(=O)(=O)Nc1ccc(F)c(C(=O)c2c[nH]c3ncc(-c4ccc(Cl)cc4)cc23)c1F + CN1CCN(c2cc(C(=O)Nc3cc4cc(-c5cnn(C)c5)ccc4cn3)ccn2)CC1
2. O=c1[nH]cc(F)c(=O)[nH]1 + CN1CCN(c2cc(C(=O)Nc3cc4cc(-c5cnn(C)c5)ccc4cn3)ccn2)CC1

[2.96, 4.78]

* * *

test system: 328373-195-R-J1-PDC complex spheroids, viability % test/control; assay: Anticancer human tumor 328373-195-R-J1-PDC cell line growth inhibition [CLK]; conditions: curve of first compound; second compound 10 µM;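 further: spheroids exposed to the agents for 7 days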
pIC50: −log10 of the molar value.
reportedProperty: pIC50

// worked examples, pIC50 included
[
  {
    "compound": "C=C(F)C(=O)N1CCN(c2nc(OCC3CCCN3C)nc3c2CCN(c2cccc4cccc(Cl)c24)C3)CC1CC#N (stereo not given) + CNC(=O)c1ccc(Nc2nc(OC3CCCC3)c3c(-c4ccc5nc(C)oc5c4)c[nH]c3n2)c(OC)c1",
    "assayedTarget": "328373-195-R-J1-PDC complex spheroids, viability % test/control",
    "pIC50": "> 7.50"
  },
  {
    "compound": "CCCS(=O)(=O)Nc1ccc(F)c(C(=O)c2c[nH]c3ncc(-c4ccc(Cl)cc4)cc23)c1F + CN1CCN(c2cc(C(=O)Nc3cc4cc(-c5cnn(C)c5)ccc4cn3)ccn2)CC1",
    "assayedTarget": "328373-195-R-J1-PDC complex spheroids, viability % test/control",
    "pIC50": "> 7.50"
  }
]

Would you mind listing pIC50 for each of the following compounds?
1. C=CC(=O)Nc1cc(Nc2nccc(-c3cn(C)c4ccccc34)n2)c(OC)cc1N(C)CCN(C)C + CN1CCN(c2cc(C(=O)Nc3cc4cc(-c5cnn(C)c5)ccc4cn3)ccn2)CC1
2. C=CC(=O)Nc1cc(Nc2nccc(-c3cn(C)c4ccccc34)n2)c(OC)cc1N(C)CCN(C)C + CNC(=O)c1ccc(Nc2nc(OC3CCCC3)c3c(-c4ccc5nc(C)oc5c4)c[nH]c3n2)c(OC)c1
3. C#Cc1c(F)ccc2cc(O)cc(-c3ncc4c(N5CC6CCC(C5)N6)nc(OCC56CCCN5CC(F)C6)nc4c3F)c12 (stereo not given) + CNC(=O)c1ccc(Nc2nc(OC3CCCC3)c3c(-c4ccc5nc(C)oc5c4)c[nH]c3n2)c(OC)c1
4. CC(CO)NC(=O)c1cc(-c2ccc(Cl)cc2)nn(-c2cnn(C)c2)c1=O (stereo not given) + CN1CCN(c2cc(C(=O)Nc3cc4cc(-c5cnn(C)c5)ccc4cn3)ccn2)CC1
5. CC1(C)CCC(CN2CCN(c3ccc(C(=O)NS(=O)(=O)c4ccc(NCC5CCOCC5)c([N+](=O)[O-])c4)c(Oc4cnc5[nH]ccc5c4)c3)CC2)=C(c2ccc(Cl)cc2)C1 + CNC(=O)c1ccc(Nc2nc(OC3CCCC3)c3c(-c4ccc5nc(C)oc5c4)c[nH]c3n2)c(OC)c1
6. O=c1[nH]cc(F)c(=O)[nH]1 + CN1CCN(c2cc(C(=O)Nc3cc4cc(-c5cnn(C)c5)ccc4cn3)ccn2)CC1
7. COc1c(OCCCN2CCOCC2)ccc2c3n(c(=NC(=O)c4cnc(N)nc4)nc12)CCN3 + CN1CCN(c2cc(C(=O)Nc3cc4cc(-c5cnn(C)c5)ccc4cn3)ccn2)CC1

1: > 9.02; 2: > 9.02; 3: > 7.50; 4: > 7.50; 5: > 7.50; 6: > 7.50; 7: > 8.50

Would you mind listing pIC50 for each of the following compounds?
1. NC(=O)C(=Cn1cnc(-c2cc(C(F)(F)F)cc(C(F)(F)F)c2)n1)c1cncnc1 + CNC(=O)c1ccc(Nc2nc(OC3CCCC3)c3c(-c4ccc5nc(C)oc5c4)c[nH]c3n2)c(OC)c1
2. O=C(c1cc(Cc2n[nH]c(=O)c3ccccc23)ccc1F)N1CCN(C(=O)C2CC2)CC1 + CNC(=O)c1ccc(Nc2nc(OC3CCCC3)c3c(-c4ccc5nc(C)oc5c4)c[nH]c3n2)c(OC)c1
3. COc1c(OCCCN2CCOCC2)ccc2c3n(c(=NC(=O)c4cnc(N)nc4)nc12)CCN3 + CNC(=O)c1ccc(Nc2nc(OC3CCCC3)c3c(-c4ccc5nc(C)oc5c4)c[nH]c3n2)c(OC)c1
4. CC(=O)O[C@H]1C(=O)[C@@]2(C)[C@H]([C@H](OC(=O)c3ccccc3)[C@]3(O)C[C@H](OC(=O)[C@H](O)[C@@H](NC(=O)c4ccccc4)c4ccccc4)C(C)=C1C3(C)C)[C@]1(OC(C)=O)CO[C@@H]1C[C@@H]2O + CN1CCN(c2cc(C(=O)Nc3cc4cc(-c5cnn(C)c5)ccc4cn3)ccn2)CC1
5. O=C(c1cc(Cc2n[nH]c(=O)c3ccccc23)ccc1F)N1CCN(C(=O)C2CC2)CC1 + CN1CCN(c2cc(C(=O)Nc3cc4cc(-c5cnn(C)c5)ccc4cn3)ccn2)CC1

1. > 8.02
2. > 7.50
3. > 8.50
4. > 7.50
5. > 7.50

* * *

system: 328373-195-R-J1-PDC complex spheroids, viability % test/control; experiment: Anticancer human tumor 328373-195-R-J1-PDC cell line growth inhibition [CLK]; settings: second compound 10 µM; first compound 0.316 µM; active = viability on the fitted dose curve at most 10% of control; inactive = the rest;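 further: spheroids exposed to the agents for 7 days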
Your response should consist of one outcome taken from active, inactive

Take a look at these entries with their results.
[
  {
    "compound": "O=C(c1cc(Cc2n[nH]c(=O)c3ccccc23)ccc1F)N1CCN(C(=O)C2CC2)CC1 + CNC(=O)c1ccc(Nc2nc(OC3CCCC3)c3c(-c4ccc5nc(C)oc5c4)c[nH]c3n2)c(OC)c1",
    "classAssignment": "inactive"
  },
  {
    "compound": "C=CC(=O)N1CCN(c2nc(=O)n(-c3c(C)ccnc3C(C)C)c3nc(-c4c(O)cccc4F)c(F)cc23)C(C)C1 (stereo not given) + CNC(=O)c1ccc(Nc2nc(OC3CCCC3)c3c(-c4ccc5nc(C)oc5c4)c[nH]c3n2)c(OC)c1",
    "classAssignment": "inactive"
  },
  {
    "compound": "COc1cccc2c1C(=O)c1c(O)c3c(c(O)c1C2=O)CC(O)(C(=O)CO)CC3OC1CC(N)C(O)C(C)O1 (stereo not given) + CNC(=O)c1ccc(Nc2nc(OC3CCCC3)c3c(-c4ccc5nc(C)oc5c4)c[nH]c3n2)c(OC)c1",
    "classAssignment": "active"
  },
  {
    "compound": "CCc1c2c(nc3ccc(O)cc13)-c1cc3c(c(=O)n1C2)COC(=O)[C@]3(O)CC + CN1CCN(c2cc(C(=O)Nc3cc4cc(-c5cnn(C)c5)ccc4cn3)ccn2)CC1",
    "classAssignment": "active"
  }
]

Each compound tested received a call. Report the one for COC1C=CCC(C)C(C)S(=O)(=O)NC(=O)c2ccc3c(c2)N(CC2CCC21)CC1(CCCc2cc(Cl)ccc21)CO3 (stereo not given) + CNC(=O)c1ccc(Nc2nc(OC3CCCC3)c3c(-c4ccc5nc(C)oc5c4)c[nH]c3n2)c(OC)c1 . inactive
